Values from ChEMBL document CHEMBL4673370

Target: Neuronal acetylcholine receptor; alpha4/beta2 (Rattus norvegicus, UniProt P09483+P12390)
Sequence (P09483 whole entry): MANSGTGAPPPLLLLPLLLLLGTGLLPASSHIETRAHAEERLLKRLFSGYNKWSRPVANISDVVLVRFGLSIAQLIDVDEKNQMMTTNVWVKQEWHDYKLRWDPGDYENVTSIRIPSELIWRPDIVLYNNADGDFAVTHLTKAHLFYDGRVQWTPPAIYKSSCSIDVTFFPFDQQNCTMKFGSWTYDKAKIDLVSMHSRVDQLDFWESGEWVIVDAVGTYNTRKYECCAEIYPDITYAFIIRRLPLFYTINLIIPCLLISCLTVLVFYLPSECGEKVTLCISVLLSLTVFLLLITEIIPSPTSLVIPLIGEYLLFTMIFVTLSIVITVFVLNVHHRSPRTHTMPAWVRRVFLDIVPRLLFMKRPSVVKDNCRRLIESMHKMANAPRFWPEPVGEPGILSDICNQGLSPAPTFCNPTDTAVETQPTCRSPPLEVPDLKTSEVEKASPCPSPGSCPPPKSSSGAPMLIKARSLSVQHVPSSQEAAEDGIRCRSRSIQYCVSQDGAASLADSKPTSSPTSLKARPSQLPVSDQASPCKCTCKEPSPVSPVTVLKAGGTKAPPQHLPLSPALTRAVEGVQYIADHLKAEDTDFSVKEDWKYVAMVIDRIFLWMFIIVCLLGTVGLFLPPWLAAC
Sequence (P12390 whole entry): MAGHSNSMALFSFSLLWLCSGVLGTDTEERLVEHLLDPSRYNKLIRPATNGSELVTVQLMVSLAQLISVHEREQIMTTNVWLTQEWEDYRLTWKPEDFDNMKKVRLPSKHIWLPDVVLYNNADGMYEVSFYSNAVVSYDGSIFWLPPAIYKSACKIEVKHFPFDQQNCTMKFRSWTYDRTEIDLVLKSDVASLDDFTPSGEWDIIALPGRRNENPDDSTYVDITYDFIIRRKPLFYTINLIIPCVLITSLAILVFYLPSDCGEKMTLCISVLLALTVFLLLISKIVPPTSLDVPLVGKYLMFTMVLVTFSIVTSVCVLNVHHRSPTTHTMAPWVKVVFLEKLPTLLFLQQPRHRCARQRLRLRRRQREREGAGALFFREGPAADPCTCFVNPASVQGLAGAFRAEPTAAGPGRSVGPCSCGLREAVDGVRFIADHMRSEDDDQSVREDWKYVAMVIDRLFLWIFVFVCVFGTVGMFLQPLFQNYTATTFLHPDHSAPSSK
Test: Displacement of [3H]-Epibatidine from alpha4beta2 nAChR in rat cerebral cortex membrane preincubated for 5 mins followed by [3H]-Epibatidine addition and measured after overnight incubation by liquid scintillation beta counter analysis
pKi: −log10 of the molar value.
pKi: recorded values
value_kind: pKi

>>> experimental_result("CN1CCC[C@H]1[C@@H]1COc2c(cccc2-c2ccccc2)O1")
6.19
>>> experimental_result("CN(C)c1ccc2c(c1)O[C@@H]([C@@H]1CCCN1C)CO2")
4.31
>>> experimental_result("CN1CCC[C@H]1[C@@H]1COc2cc(-c3ccccc3)ccc2O1")
4.23
>>> experimental_result("CN1CCC[C@H]1[C@@H]1COc2cc([N+](=O)[O-])ccc2O1")
4.34
>>> experimental_result("CN1CCC[C@H]1[C@@H]1COc2ccc([N+](=O)[O-])cc2O1")
4.85
>>> experimental_result("CN1CCC[C@H]1[C@H]1COc2ccc([N+](=O)[O-])cc2O1")
4.48
>>> experimental_result("CN1CCC[C@H]1[C@@H]1COc2cc(O)ccc2O1")
4.30
